biological target: CDK2/cyclin E (Homo sapiens); assay: CDK2/cyclin E Flashplate test in 96-well format; format: biochemical; details: read-out: CDK2 IC50
pIC50: −log10 of the molar value. Counter-ions that a name gives are not always drawn.
We use 6 as the dividing line for pIC50: on or above the line is satisfied, below is not satisfied.

Enquiry: State whether the measured pIC50 reaches 6, counting equality as reaching it, for O=C(Nc1nc2ccc(OS(=O)(=O)c3cccs3)cc2s1)C1CC1 [Example 33h]
Return: not satisfied

Enquiry: State whether the measured pIC50 reaches 6, counting equality as reaching it, for CC(C)N(CCNc1ccc(S(=O)(=O)Oc2ccc3nc(NC(=O)CCc4cccnc4)sc3c2)cc1)C(C)C [Example 62, hydrochloride]
Return: satisfied

Enquiry: State whether the measured pIC50 reaches 6, counting equality as reaching it, for CC(=O)Nc1nc2ccc(OS(=O)(=O)c3ccc(NCCNC(C)C)cc3)cc2s1
Return: satisfied

Enquiry: State whether the measured pIC50 reaches 6, counting equality as reaching it, for CCCC(=O)Nc1nc2ccc(OS(=O)(=O)c3ccc(NCCNC(C)C)cc3)cc2s1
Return: satisfied
